meta.source: patent US20180015100A1

assay-name: clinical
condition-context: human, in vivo, po, 400 mg, T½
assay-endpoint: half-life (min)
One number for each entry, in min.

INPUT: For Nc1nc(/C(=C/CC(=O)O)C(=O)N[C@@H]2C(=O)N3C(C(=O)O)=CCS[C@H]23)cs1 , what is its reported half-life?
OUTPUT: 187

* * *

Test system: Escherichia coli isolates
assay-name: MIC of cephalosporins alone or with clavulanate/tazobactam
Assay type: cell-based
condition-context: AECO1157 (CTX-M-15, TEM-OSBL), clavulanate 2:1, tazobactam 4 μg/mL
Please go through the items and note down their MIC.

Worked examples follow.
| molecule | MIC |
| --- | --- |
| C=CC1=C(C(=O)O)N2C(=O)[C@@H](NC(=O)/C(=N\OCC(=O)O)c3csc(N)n3)[C@H]2SC1 | > 64 µg/mL |
| O=C(O)[C@H]1/C(=C/CO)O[C@@H]2CC(=O)N21 [Clavulanate, clavulanic acid] | 32 µg/mL |
| COCC1=C(C(=O)O)N2C(=O)[C@@H](NC(=O)/C(=N\OC)c3csc(N)n3)[C@H]2SC1 | > 64 µg/mL |
| CO/N=C(\C(=O)N[C@@H]1C(=O)N2C(C(=O)[O-])=C(C[N+]3(C)CCCC3)CS[C@H]12)c1csc(N)n1 [Cefepime, cefepime] | 32 µg/mL |
| C[C@]1(Cn2ccnn2)[C@H](C(=O)O)N2C(=O)C[C@H]2S1(=O)=O | > 64 µg/mL |

Consider the record given below.
INPUT: Form entry - test system: Escherichia coli isolates; read-out: MIC; molecule: Nc1nc(/C(=C/CC(=O)O)C(=O)N[C@@H]2C(=O)N3C(C(=O)O)=CCS[C@H]23)cs1
OUTPUT: 8 µg/mL

* * *

System: Citrobacter freundii isolates
assay-name: MIC of cephalosporins alone or with clavulanate/tazobactam
Assay type: cell-based
condition-context: ACFR1034 (CTX-M-15, TEM-OSBL), clavulanate 2:1, tazobactam 4 μg/mL
assay-endpoint: MIC

| compound | assay-endpoint | result |
| --- | --- | --- |
| Nc1nc(/C(=C/CC(=O)O)C(=O)N[C@@H]2C(=O)N3C(C(=O)O)=CCS[C@H]23)cs1 | MIC | > 64 µg/mL |

Look up MIC for the entries below, preserving their order.
1. C[C@]1(Cn2ccnn2)[C@H](C(=O)O)N2C(=O)C[C@H]2S1(=O)=O
2. COCC1=C(C(=O)O)N2C(=O)[C@@H](NC(=O)/C(=N\OC)c3csc(N)n3)[C@H]2SC1
3. O=C(O)[C@H]1/C(=C/CO)O[C@@H]2CC(=O)N21 [Clavulanate, clavulanic acid]
4. CO/N=C(\C(=O)N[C@@H]1C(=O)N2C(C(=O)[O-])=C(C[N+]3(C)CCCC3)CS[C@H]12)c1csc(N)n1 [Cefepime, cefepime]
5. C=CC1=C(C(=O)O)N2C(=O)[C@@H](NC(=O)/C(=N\OCC(=O)O)c3csc(N)n3)[C@H]2SC1

OUTPUT:
["> 64 µg/mL", "> 64 µg/mL", "32 µg/mL", "> 32 µg/mL", "> 64 µg/mL"]

* * *

assay-name: clinical
condition-context: human, in vivo, po, 125 mg, Tmax
assay-endpoint: Tmax
Express the reported value numerically, then name its unit.

INPUT: For O=C(O)[C@H]1/C(=C/CO)O[C@@H]2CC(=O)N21 [Clavulanate, clavulanic acid] , what is its reported Tmax?
OUTPUT: 1 h

* * *

Test system: Klebsiella pneumoniae isolates
assay-name: MIC of cephalosporins alone or with clavulanate/tazobactam
Type: cell-based
condition-context: AKPN1159 (SHV-12), clavulanate 2:1, tazobactam 4 μg/mL
Please go through the items and note down their MIC.
Numbers only, in µg/mL.

Look up MIC for the entries below, preserving their order.
1. Nc1nc(/C(=C/CC(=O)O)C(=O)N[C@@H]2C(=O)N3C(C(=O)O)=CCS[C@H]23)cs1 [Ceftibuten, ceftibuten]
2. COCC1=C(C(=O)O)N2C(=O)[C@@H](NC(=O)/C(=N\OC)c3csc(N)n3)[C@H]2SC1 [Cefpodoxime, cefpodoxime]
3. CO/N=C(\C(=O)N[C@@H]1C(=O)N2C(C(=O)[O-])=C(C[N+]3(C)CCCC3)CS[C@H]12)c1csc(N)n1 [Cefepime, cefepime]
4. C=CC1=C(C(=O)O)N2C(=O)[C@@H](NC(=O)/C(=N\OCC(=O)O)c3csc(N)n3)[C@H]2SC1 [Cefixime, cefixime]
5. O=C(O)[C@H]1/C(=C/CO)O[C@@H]2CC(=O)N21 [Clavulanate, clavulanic acid]

OUTPUT:
4
64
2
32
32

* * *

assay-name: clinical
condition-context: human, in vivo, po, 400 mg, Vz/F
assay-endpoint: Vd/F (L)
One number for each entry, in L.

INPUT: For Nc1nc(/C(=C/CC(=O)O)C(=O)N[C@@H]2C(=O)N3C(C(=O)O)=CCS[C@H]23)cs1 , what is its reported Vd/F?
OUTPUT: 19.3

* * *

Test system: Klebsiella oxytoca isolates
assay-name: MIC of cephalosporins alone or with clavulanate/tazobactam
Type: cell-based
condition-context: AKOX1005 (SHV-2, TEM-1, DHA-1), clavulanate 2:1, tazobactam 4 μg/mL
assay-endpoint: MIC (µg/mL)
Numbers only, in µg/mL.

Look up MIC for the entries below, preserving their order.
1. COCC1=C(C(=O)O)N2C(=O)[C@@H](NC(=O)/C(=N\OC)c3csc(N)n3)[C@H]2SC1 [Cefpodoxime, cefpodoxime]
2. C=CC1=C(C(=O)O)N2C(=O)[C@@H](NC(=O)/C(=N\OCC(=O)O)c3csc(N)n3)[C@H]2SC1 [Cefixime, cefixime]
3. CO/N=C(\C(=O)N[C@@H]1C(=O)N2C(C(=O)[O-])=C(C[N+]3(C)CCCC3)CS[C@H]12)c1csc(N)n1 [Cefepime, cefepime]
4. O=C(O)[C@H]1/C(=C/CO)O[C@@H]2CC(=O)N21 [Clavulanate, clavulanic acid]
5. Nc1nc(/C(=C/CC(=O)O)C(=O)N[C@@H]2C(=O)N3C(C(=O)O)=CCS[C@H]23)cs1 [Ceftibuten, ceftibuten]

OUTPUT:
1: 32; 2: 16; 3: 0.25; 4: 32; 5: 2

* * *

Please go through the items and note down their MIC.
Tested on: Escherichia coli isolates
assay-name: MIC of cephalosporins alone or with clavulanate/tazobactam
Format: cell-based
condition-context: AECO1169 (CTX-M-1, TEM-OSBL), clavulanate 2:1, tazobactam 4 μg/mL
Numbers only, in µg/mL.

| compound | subject-of-test | MIC, µg/mL |
| --- | --- | --- |
| O=C(O)[C@H]1/C(=C/CO)O[C@@H]2CC(=O)N21 [Clavulanate, clavulanic acid] | Escherichia coli isolates | 32 |
| Nc1nc(/C(=C/CC(=O)O)C(=O)N[C@@H]2C(=O)N3C(C(=O)O)=CCS[C@H]23)cs1 [Ceftibuten, ceftibuten] | Escherichia coli isolates | 1 |

Consider the record given below.
INPUT: For C=CC1=C(C(=O)O)N2C(=O)[C@@H](NC(=O)/C(=N\OCC(=O)O)c3csc(N)n3)[C@H]2SC1 [Cefixime, cefixime] , what is its reported MIC?
OUTPUT: 16

* * *

assay-name: clinical
condition-context: human, in vivo, po, 125 mg, T½
assay-endpoint: half-life (min)
Give bare numbers, in min.

INPUT: For O=C(O)[C@H]1/C(=C/CO)O[C@@H]2CC(=O)N21 [Clavulanate, clavulanic acid] , what is its reported half-life?
OUTPUT: 46.5

* * *

subject-of-test: CTX-M-15 (Escherichia coli, UniProt Q9EXV5)
Sequence (Q9EXV5 entry or part of it): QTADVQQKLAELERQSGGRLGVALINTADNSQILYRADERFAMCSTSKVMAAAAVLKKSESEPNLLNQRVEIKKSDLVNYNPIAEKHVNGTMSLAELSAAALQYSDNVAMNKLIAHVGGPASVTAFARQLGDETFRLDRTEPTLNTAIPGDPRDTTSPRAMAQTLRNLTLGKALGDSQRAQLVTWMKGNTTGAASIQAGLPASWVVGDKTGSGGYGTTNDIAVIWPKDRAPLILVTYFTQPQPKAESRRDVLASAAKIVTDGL
assay-name: Competition assay with nitrocefin (IC50)
Assay type: biochemical
assay-endpoint: IC50 (µM)
Give bare numbers, in µM.

| structure-as-smiles | output-unit | IC50 |
| --- | --- | --- |
| COCC1=C(C(=O)O)N2C(=O)[C@@H](NC(=O)/C(=N\OC)c3csc(N)n3)[C@H]2SC1 | µM | 24 |
| CO/N=C(\C(=O)N[C@@H]1C(=O)N2C(C(=O)O)=C(COC(C)=O)CS[C@H]12)c1csc(N)n1 | µM | 31 |

Consider the record given below.
INPUT: For C=CC1=C(C(=O)O)N2C(=O)[C@@H](NC(=O)/C(=N\OCC(=O)O)c3csc(N)n3)[C@H]2SC1 , what is its reported IC50?
OUTPUT: 20

* * *

Please go through the items and note down their MIC.
Test system: Enterobacter aerogenes isolates
assay-name: MIC of cephalosporins alone or with clavulanate/tazobactam
Assay type: cell-based
condition-context: Klebsiella aerogenes, AEAE1029 (CTX-M-15); clavulanate 2:1, tazobactam 4 μg/mL

Worked examples follow.
| compound | MIC |
| --- | --- |
| O=C(O)[C@H]1/C(=C/CO)O[C@@H]2CC(=O)N21 [Clavulanate, clavulanic acid] | 32 µg/mL |
| COCC1=C(C(=O)O)N2C(=O)[C@@H](NC(=O)/C(=N\OC)c3csc(N)n3)[C@H]2SC1 | > 64 µg/mL |

Look up MIC for the entries below, preserving their order.
1. C=CC1=C(C(=O)O)N2C(=O)[C@@H](NC(=O)/C(=N\OCC(=O)O)c3csc(N)n3)[C@H]2SC1
2. CO/N=C(\C(=O)N[C@@H]1C(=O)N2C(C(=O)[O-])=C(C[N+]3(C)CCCC3)CS[C@H]12)c1csc(N)n1 [Cefepime, cefepime]
3. Nc1nc(/C(=C/CC(=O)O)C(=O)N[C@@H]2C(=O)N3C(C(=O)O)=CCS[C@H]23)cs1
4. C[C@]1(Cn2ccnn2)[C@H](C(=O)O)N2C(=O)C[C@H]2S1(=O)=O

OUTPUT:
["> 64 µg/mL", "> 32 µg/mL", "8 µg/mL", "> 64 µg/mL"]
